Test system: intracellular amastigotes of L. (V) panamensis
TEST: Leishmanicidal activity against intracellular amastigotes (GFP, flow cytometry, 72 h)
Assay type: cell-based, Leishmania (Viannia) panamensis
ASSAY SETUP: LC50 U-937 / EC50 intracellular amastigotes
Listed compounds paired with reported SI (Selectivity Index = LC50/EC50)
Format: numeric value only, no unit, no commentary.

COMPOUND | SI (Selectivity Index = LC50/EC50)
O=c1ccoc2cc(OCCCCCOc3cc(Cl)ccc3Oc3ccc(Cl)cc3Cl)ccc12 [Compound 27] | 1.6
O=c1ccoc2cc(OCCCOc3cc(Cl)ccc3Oc3ccc(Cl)cc3Cl)ccc12 [Compound 25] | 2.4
O=c1ccoc2cc(OCCCCOc3cc(Cl)ccc3Oc3ccc(Cl)cc3Cl)ccc12 [Compound 26] | 2.1

Consider Oc1cc(Cl)ccc1Oc1ccc(Cl)cc1Cl [Triclosan] . Its measured SI (Selectivity Index = LC50/EC50) is 1.3
